- EXPERIMENTAL_SYSTEM: Beta Secretase enzyme (BACE1) (Homo sapiens (Human))
- Sequence (P56817 46-501): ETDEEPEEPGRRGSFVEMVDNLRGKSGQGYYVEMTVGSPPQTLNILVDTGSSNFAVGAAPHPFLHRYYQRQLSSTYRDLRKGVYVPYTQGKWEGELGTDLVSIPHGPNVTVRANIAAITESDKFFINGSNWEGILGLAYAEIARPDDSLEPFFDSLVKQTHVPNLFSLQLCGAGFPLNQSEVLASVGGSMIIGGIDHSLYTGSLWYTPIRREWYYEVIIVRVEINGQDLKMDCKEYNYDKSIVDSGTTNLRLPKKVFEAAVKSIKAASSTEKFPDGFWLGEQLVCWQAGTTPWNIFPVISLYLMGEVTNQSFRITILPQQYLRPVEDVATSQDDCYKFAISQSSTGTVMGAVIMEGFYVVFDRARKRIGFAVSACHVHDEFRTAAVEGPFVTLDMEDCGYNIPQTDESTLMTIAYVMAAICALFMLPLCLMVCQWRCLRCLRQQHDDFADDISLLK
- ASSAY_PROCEDURE: In vitro enzymatic BACE FRET assay
- Format: biochemical
- ASSAY_CONDITIONS: average IC50, enzyme assay (Table II)
pIC50: −log10 of the molar value.

STRUCTURE: COc1cnc(C(=O)Nc2cc([C@]3(C)CS(=O)(=O)C(C)(C)C(N)=N3)c(F)cn2)cn1
pIC50: 6.94
--
STRUCTURE: Cc1cc(C(F)F)cnc1C(=O)Nc1ccc(F)c([C@]2(C)CS(=O)(=O)[C@]3(C[C@@H](F)C3)C(N)=N2)c1
pIC50: 8.53

----------
- EXPERIMENTAL_SYSTEM: Cathepsin D (Cat D) (Homo sapiens (Human), UniProt P07339)
- Sequence (P07339 65-412, species assumed): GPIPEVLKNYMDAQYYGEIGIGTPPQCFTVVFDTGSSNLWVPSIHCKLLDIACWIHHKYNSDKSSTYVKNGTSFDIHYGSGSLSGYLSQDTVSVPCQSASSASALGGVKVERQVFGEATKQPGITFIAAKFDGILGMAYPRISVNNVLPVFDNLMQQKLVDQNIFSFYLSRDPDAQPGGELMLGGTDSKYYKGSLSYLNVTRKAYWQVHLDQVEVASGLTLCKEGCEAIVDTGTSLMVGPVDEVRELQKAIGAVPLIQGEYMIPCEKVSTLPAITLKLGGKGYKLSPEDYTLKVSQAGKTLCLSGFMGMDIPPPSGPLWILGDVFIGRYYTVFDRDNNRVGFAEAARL
- ASSAY_PROCEDURE: In vitro enzymatic Cathepsin D (Cat D) FRET assay
- Format: biochemical
- ASSAY_CONDITIONS: read-out: CatD IC50
pIC50: −log10 of the molar value.
MEASURE_NAME: pIC50

COMPOUND: CC1(C)C(N)=N[C@](C)(c2cc(Nc3nccc4cc(Cl)cnc34)cc(F)c2F)CS1(=O)=O
QUALIFIER_SIGN: =
ENDPOINT_VALUE: 4.95
//
COMPOUND: COc1cnc(C(=O)Nc2cc([C@@]3(C)CS(=O)(=O)C(C)(C)C(N)=N3)c(F)cn2)cn1
QUALIFIER_SIGN: <
ENDPOINT_VALUE: 3.40
//
COMPOUND: C[C@]1(c2cc(NC(=O)c3cnc(C(F)F)cn3)ccc2F)N=C(N)C2(CCC2)S(=O)(=O)[C@@H]1F
QUALIFIER_SIGN: =
ENDPOINT_VALUE: 3.40
//
COMPOUND: CC1(C)C(N)=N[C@]2(c3cc(Br)ccc3F)COC[C@@H]2S1(=O)=O [Example 185b]
QUALIFIER_SIGN: <
ENDPOINT_VALUE: 3.40
//
COMPOUND: COc1cnc2c(Nc3cnc(F)c([C@]4(C)CS(=O)(=O)C(C)(C)C(N)=N4)c3)nccc2c1
QUALIFIER_SIGN: =
ENDPOINT_VALUE: 4.00
//
COMPOUND: CC1(C)C(N)=N[C@@]2(c3cc(Br)ccc3F)COC[C@H]2S1(=O)=O [Example 185a]
QUALIFIER_SIGN: =
ENDPOINT_VALUE: 4.15
//
COMPOUND: CC1(C)C(N)=NC2(c3cc(Br)ccc3F)COCC2S1(=O)=O (stereo not drawn)
QUALIFIER_SIGN: =
ENDPOINT_VALUE: 3.49
//
COMPOUND: COc1cnc(C(=O)Nc2ccc(F)c([C@]3(C)CSCC(N)=N3)c2)cn1
QUALIFIER_SIGN: <
ENDPOINT_VALUE: 3.40
//
COMPOUND: COc1cnc(C(=O)Nc2ccc(F)c([C@@]3(C(F)(F)F)CS(=O)(=O)C(C)(C)C(N)=N3)c2)cn1
QUALIFIER_SIGN: <
ENDPOINT_VALUE: 3.40

----------
- EXPERIMENTAL_SYSTEM: Beta Secretase enzyme (BACE1) (Homo sapiens (Human))
- ASSAY_PROCEDURE: In vitro enzymatic BACE FRET assay
- Assay type: biochemical
// reported IC50 for each item listed
MEASURE_NAME: IC50 (nM)

STRUCTURE: COc1cnc2c(Nc3cnc(F)c([C@]4(C)CS(=O)(=O)C(C)(C)C(N)=N4)c3)nccc2c1
MEASURE_NAME: IC50
MEASUREMENT_UNITS: nM
ENDPOINT_VALUE: 4.3
//
STRUCTURE: COc1cnc(C(=O)Nc2ccc(F)c([C@@]3(C(F)(F)F)CS(=O)(=O)C(C)(C)C(N)=N3)c2)cn1
MEASURE_NAME: IC50
MEASUREMENT_UNITS: nM
ENDPOINT_VALUE: 883
//
STRUCTURE: CC1(C)C(N)=N[C@](C)(c2cc(Nc3nccc4cc(Cl)cnc34)cc(F)c2F)CS1(=O)=O
MEASURE_NAME: IC50
MEASUREMENT_UNITS: nM
ENDPOINT_VALUE: 1.4
